system: 3D7-strain P. falciparum asexual parasites; assay: P. falciparum asexual growth inhibition assay (Pf GIA); format: cell-based, Plasmodium falciparum; settings: dose response confirmation; read-out: Pf asexual growth inhibition assays IC50
pIC50: −log10 of the molar value.
# pIC50 values compiled below
READOUT_NAME: pIC50

>  <COMPOUND>
Cc1[nH]c(C)c(-c2ccc(-c3cc(C(F)(F)F)cc(C(F)(F)F)c3)nc2)c(=O)c1Br

>  <TESTED_ON>
3D7-strain P. falciparum asexual parasites

>  <READOUT_NAME>
pIC50

>  <RECORDED_VALUE>
7.62

$$$$
>  <COMPOUND>
CCn1c(C)cc(C=C2SC(=Nc3ccccc3)NC2=O)c1C

>  <TESTED_ON>
3D7-strain P. falciparum asexual parasites

>  <READOUT_NAME>
pIC50

>  <RECORDED_VALUE>
5.77

$$$$
>  <COMPOUND>
COc1cc(NC2=C(c3ccccc3)C(=O)c3ccccc32)ccn1

>  <TESTED_ON>
3D7-strain P. falciparum asexual parasites

>  <READOUT_NAME>
pIC50

>  <RECORDED_VALUE>
6.54

$$$$
>  <COMPOUND>
CCn1cc(C(=O)O)c(=O)c2cc(F)c(N3CCN(S(=O)(=O)c4ccc(N)cc4)CC3)cc21

>  <TESTED_ON>
3D7-strain P. falciparum asexual parasites

>  <READOUT_NAME>
pIC50

>  <RECORDED_VALUE>
5.77

$$$$
>  <COMPOUND>
Cc1ccc(Nc2nc3cc(N(C)c4ccnc(Nc5cccc(CCS(C)(=O)=O)c5)n4)ccc3n2C)cc1.O=C(O)C(F)(F)F

>  <TESTED_ON>
3D7-strain P. falciparum asexual parasites

>  <READOUT_NAME>
pIC50

>  <RECORDED_VALUE>
9.36

$$$$
>  <COMPOUND>
COc1ccc2nc3cc(Cl)ccc3c(NCCN(C)C)c2c1

>  <TESTED_ON>
3D7-strain P. falciparum asexual parasites

>  <READOUT_NAME>
pIC50

>  <RECORDED_VALUE>
7.32

$$$$
>  <COMPOUND>
Nc1c2ccccc2nc2ccc(Cl)cc12

>  <TESTED_ON>
3D7-strain P. falciparum asexual parasites

>  <READOUT_NAME>
pIC50

>  <RECORDED_VALUE>
6.49

$$$$
>  <COMPOUND>
COc1ccc(C=C2SC(=N)N(c3ccccc3OC)C2=O)cc1

>  <TESTED_ON>
3D7-strain P. falciparum asexual parasites

>  <READOUT_NAME>
pIC50

>  <RECORDED_VALUE>
6.46

$$$$

====

tested on: P. berghei ookinete development; conditions: primary screen at 1 μM, replicate A
% inhibition, Replicate A vs 60%: at or above is met, below is not met.

>  <COMPOUND>
CCC(C(C)C)n1ccc2c3c(N)nc(N)nc3ccc21 (centres unmarked)

>  <TESTED_ON>
P. berghei ookinete development

>  <LABEL_CLASS>
met

$$$$
>  <COMPOUND>
COc1cc(NCCCNC(=O)c2cc3c(Cl)cc(Cl)cc3[nH]2)nc2ccccc12

>  <TESTED_ON>
P. berghei ookinete development

>  <LABEL_CLASS>
not met

$$$$
>  <COMPOUND>
CCOC(=O)c1cn(CC)c2cc(N3CCCCCC3)c(F)cc2c1=O

>  <TESTED_ON>
P. berghei ookinete development

>  <LABEL_CLASS>
met

$$$$
>  <COMPOUND>
CS(=O)(=O)NCCCNCc1cccc(-c2ccc(-c3nc4ccccc4[nH]3)s2)c1.O=C(O)C(F)(F)F

>  <TESTED_ON>
P. berghei ookinete development

>  <LABEL_CLASS>
not met

$$$$
>  <COMPOUND>
Cc1cc(F)ccc1-c1nc(NCCCNCCc2ccccc2)nc2c1ccc(=O)n2-c1c(F)cccc1F.O=C(O)C(F)(F)F

>  <TESTED_ON>
P. berghei ookinete development

>  <LABEL_CLASS>
met

$$$$
>  <COMPOUND>
CCSc1ccccc1COc1c(C)nc(N)nc1N.Cl

>  <TESTED_ON>
P. berghei ookinete development

>  <LABEL_CLASS>
met

$$$$
>  <COMPOUND>
Cc1[nH]c(C)c(-c2ccc(-c3ccc(OC(F)(F)F)cc3)nc2)c(=O)c1Cl

>  <TESTED_ON>
P. berghei ookinete development

>  <LABEL_CLASS>
met

$$$$

====

tested on: P. berghei ookinete development; conditions: read-out: Pb Ookinete development assay IC50; dose response confirmation

>  <COMPOUND>
Br.COc1ccc(CC(C)CON2C(N)=NC(N)=NC2(C)C)cc1 (centres unmarked) [TCMDC-131722]

>  <TESTED_ON>
P. berghei ookinete development

>  <IC50 (nM)>
4860

$$$$
>  <COMPOUND>
Nc1nc(N)c2c(ccc3c2ccn3Cc2cccc3ccccc23)n1 [TCMDC-137996]

>  <TESTED_ON>
P. berghei ookinete development

>  <IC50 (nM)>
5760

$$$$
>  <COMPOUND>
COCCN(C)c1ccc(C(=O)Nc2ccccc2)cc1NS(=O)(=O)Cc1ccccc1.O=C(O)C(F)(F)F [TCMDC-134575]

>  <TESTED_ON>
P. berghei ookinete development

>  <IC50 (nM)>
1400

$$$$
>  <COMPOUND>
CCCCCCCc1c(C)nc2cccc(OC)c2c1O [TCMDC-138014]

>  <TESTED_ON>
P. berghei ookinete development

>  <IC50 (nM)>
1140

$$$$
>  <COMPOUND>
CC(C)(CN)c1cc(-c2ccc(Cl)c(O)c2)c(-c2ccncc2)o1.Cl [TCMDC-141334]

>  <TESTED_ON>
P. berghei ookinete development

>  <IC50 (nM)>
1390

$$$$
>  <COMPOUND>
Cc1noc(C)c1-c1ccc2c(Nc3ccc(Cl)cc3)c(C(N)=O)cnc2c1.Cl [TCMDC-136010]

>  <TESTED_ON>
P. berghei ookinete development

>  <IC50 (nM)>
6660

$$$$
>  <COMPOUND>
COc1c(F)ccc2ncc(Cl)c(CCN3CCC(NCc4ccc5c(n4)NC(=O)CS5)CC3)c12.Cl [TCMDC-141955]

>  <TESTED_ON>
P. berghei ookinete development

>  <IC50 (nM)>
1900

$$$$
>  <COMPOUND>
CCN(CC)c1nc(N)c2c(N)nc3c(c2c1C#N)C(=O)CN3Cc1ccccc1 [TCMDC-125024]

>  <TESTED_ON>
P. berghei ookinete development

>  <IC50 (nM)>
618

$$$$

====

system: HepG2 cells; experiment: HepG2 cytotoxicity assay; conditions: HepG2 cytotoxicity unified across the three screens

>  <COMPOUND>
COc1ccc(C[C@H](N)C(=O)N[C@H]2[C@@H](O)[C@H](n3cnc4c(N(C)C)ncnc43)O[C@@H]2CO)cc1

>  <Unified cytotox>
2.37 µM

$$$$
>  <COMPOUND>
FC(F)(F)c1ccc2[nH]c(-c3cccc(-c4ccc(CNCCN5CCNCC5)cc4)c3)nc2c1.O=C(O)C(F)(F)F

>  <Unified cytotox>
10.72 µM

$$$$
>  <COMPOUND>
C=CCC1OC(=O)c2cc(OC)cc(OC)c21 (stereo not shown)

>  <Unified cytotox>
2.43 µM

$$$$
>  <COMPOUND>
CC(C)COc1ccc2ccccc2c1CNCCCCCCNCc1c(OCC(C)C)ccc2ccccc12.CS(=O)(=O)O

>  <Unified cytotox>
2.03 µM

$$$$
>  <COMPOUND>
CS(=O)(=O)O.FC(F)(F)COc1ccc(CNCCCCCCNCc2ccc(OCC(F)(F)F)c3ccccc23)c2ccccc12

>  <Unified cytotox>
2.73 µM

$$$$
>  <COMPOUND>
C#CCCOc1ccc2ccccc2c1CNCCCCCCNCc1c(OCCC#C)ccc2ccccc12

>  <Unified cytotox>
5.14 µM

$$$$
>  <COMPOUND>
CC(=O)N(Cc1ccc(CC(C)NCCc2cccc(Cl)c2)cc1)Cc1ccc(CC(C)NCCc2cccc(Cl)c2)cc1 (stereo not shown)

>  <Unified cytotox>
2.58 µM

$$$$
